assay: Ocular pharmacokinetics after single intravitreal injection, aqueous humor; format: in vivo, Dutch-belted rabbits; conditions: male, Dutch-belted, other: intravitreal, 23 mM, 50 microliters per eye; rabbit aqueous humor, highest concentration (1 mM final vitreous); read-out: t1/2 terminal phase (converted)
property.label: half-life (h)
Expressed in h, but write only the number.

INPUT: I would be grateful if you could share the reported half-life for Cn1c2cc([S+](C)[O-])sc2c2cnn(Cc3cccc(N)c3)c(=O)c21 (stereo not shown) [ML-265] .
OUTPUT: 177

* * *

assay: Ocular pharmacokinetics after single intravitreal injection, aqueous humor; format: in vivo, Dutch-belted rabbits; settings: male, Dutch-belted, other: intravitreal; rabbit aqueous humor, between 6 and 48 hours, 100 μM and 1 mM final vitreous concentration; read-out: t1/2 initial phase (converted)
property.label: half-life (h)
Expressed in h, but write only the number.

INPUT: I would be grateful if you could share the reported half-life for Cn1c2cc([S+](C)[O-])sc2c2cnn(Cc3cccc(N)c3)c(=O)c21 (stereo not shown) [ML-265] .
OUTPUT: 7.8
